Origin of the recorded values: patent US20190055314A1

- target.under.test: T1, CD137-hisFc fusion protein (Sino Biological Cat 10041-H03H) (human, UniProt Q07011 24-186)
- T1 construct: Bought; also called recombinant human CD137 (fused with human Fc and His tag); not shown: His tag and human Fc
- assay: BLI Octet, Fab
quantity: koff (s⁻¹)
Provide the reading as a plain figure in s⁻¹.

Fab 7133 (Fab, V domains shown, Fab from E. coli; also called VH56/VL56) VH: EVQLVESGGGLVQPGGSLRLSCAASGFSLSTSGVGVAWIRQAPGKGLEWVSSISGYGGTTYYADSVKGRFTISRDNSKNRLYLQLNSLRAEDTAVYYCAREGSDTVLGDWFAYWGQGTLVTVSS VL: DIQLTQSPSSLSASVGDRVTITCRASQGVSSYLAWYQQKPGKAPKLLIYDASNLETGVPSRFSGSGSGTDFTLTISSLQPEDFATYYCQQYYTTPLTFGQGTKVEIKR : 0.00405

Find the recorded koff belonging to Fab 5413 (Fab, V domains shown, Fab from E. coli; also called VH38/VL38) VH: EVQLVESGGGLVQPGGSLRLSCAASGFSLSTGGVAVGWIRQAPGKGLEWLALIDWDGDKSYSTSLKSRLTISRDNSKNTLYLQLNSLRAEDTAVYYCAREGSTAVVGDWFDYWGQGTLVTVSS VL: DIQLTQSPSSLSASVGDRVTITCRASQGISRYLAWYQQKPGKAPKLLIYDASNRATGIPSRFSGSGSGTDFTLTISSLQPEDFATYYCQQGYSLWTFGQGTKVEIKR and report it.
0.000551
